Experiment: NCI Yeast Anticancer Drug Screen. Data for the rad50 strain (AID 155);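 also: 0% = growth of vehicle-only cultures of the same strain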
Conditions: S. cerevisiae rad50 strain growth inhibition; at 5.0 µM (retest, dose inferred, filed as 0.5)
The panel holds about 79,000 compounds, 15% with a hit somewhere; the sample as a whole holds those more often. Activity calls are given as the source filed them. Rule as the data show it: active = growth inhibition above about 70%; inactive = the rest.
Form entry, call: pick from active, inactive

Exam item: How did this test come out for `C=CC(=O)N1C/C(=C\c2ccc(F)cc2)C(=O)/C(=C/c2ccc(F)cc2)C1` ?
Marked response: inactive

Exam item: How did this test come out for `S=C(CSc1ccccc1)Nc1cccc2ccccc12` ?
Marked response: inactive

Exam item: How did this test come out for `Cc1cc2nc3c(C)c4ccccc4c(C)n3c2cc1C` ?
Marked response: active

Exam item: How did this test come out for `O=C1C=CC(=O)N1c1ccc(-c2ccc(N3C(=O)C=CC3=O)cc2)cc1` ?
Marked response: inactive

Exam item: How did this test come out for CCN(CC)CC(O)c1ccc(/C=C/c2ccc(Cl)cc2)cc1 (stereo unspecified) ?
Marked response: inactive

// next entry
Exam item: How did this test come out for COc1ccc(C(=O)NCCN2CCN3Cc4[nH]c5ccccc5c4CC3C2)cc1 (stereo unspecified) ?
Marked response: inactive

---

Test: NCI Yeast Anticancer Drug Screen. Data for the mec2-1 strain (AID 157)
Settings: S. cerevisiae mec2-1 strain, at 50.0 µM (retest, dose inferred, filed as 5.0), active compounds read high
About 79,000 compounds went through this panel and 15% of them were active in at least one assay; those are over-represented in the sample as a whole.
Answer each item with its documented growth inhibition.
Numbers only, in %.

Exam item: Looking for the measured growth inhibition of C=CCN1CCC(OC(=O)C(O)(/C=C\CC)C2CCCC2)CC1 (stereo unspecified) , can you help?
Marked response: 40

Exam item: Looking for the measured growth inhibition of `CCOC(=O)c1cnc2cc3cccccc3n2c1=O` , can you help?
Marked response: 41

Exam item: Looking for the measured growth inhibition of `C/C(=N/NC(=S)N(C)C)c1ccccc1O` , can you help?
Marked response: 9

Hi team, please reply with growth inhibition for each item in this list.
1. CN(C)N=Nc1c(-c2cccs2)n[nH]c1C(F)(F)F
2. CNC(=O)NC(c1cc(OC)c(OC)c(OC)c1)c1cc2c(cc1O)OCO2 (stereo unspecified)

Marked response:
1. 100
2. -8

---

Test: NCI Yeast Anticancer Drug Screen. Data for the bub3 strain (AID 167)
Conditions: S. cerevisiae bub3 mutant strain, at 50.0 µM (retest, dose inferred, filed as 5.0), active compounds read high
This is part of a sample that, as a whole, favours compounds with a hit. Of some 79,000 tested, about 15% had one in any assay.
Assign class by growth inhibition: not lower than 80% means T; lower than 80% means F.

Exam item: Is growth inhibition for `CC(C)C1(C)C(C#N)(C#N)C1(C#N)C#N` at or above 80%?
Marked response: T

Exam item: Is growth inhibition for `O=C(Nc1ccccc1)OCCN=C1c2ccccc2CCc2ccccc21` at or above 80%?
Marked response: T

Exam item: Is growth inhibition for `Cc1csc2[n+]1C(=O)/C(=C\c1ccc([N+](=O)[O-])cc1)S2` at or above 80%?
Marked response: F

Exam item: Is growth inhibition for CN1CCN(C2=C(Cl)C3(OCCS3)C(F)(F)C2(F)F)CC1 (configuration not stated) at or above 80%?
Marked response: F

Exam item: Is growth inhibition for `O=Cc1ccc2cc(Cl)ccc2n1` at or above 80%?
Marked response: F

Exam item: Is growth inhibition for `O=c1sc(=S)[nH]c2ccccc12` at or above 80%?
Marked response: F

---
Exam item: Is growth inhibition for `CCOP(=O)(CCC(=O)[C@@]1(O)CC[C@H]2[C@@H]3CCC4=CC(=O)CC[C@]4(C)[C@H]3CC[C@@]21C)OCC` at or above 80%?
Marked response: F

Exam item: Is growth inhibition for `NC(=S)C(=S)N/C=C/c1nc2ccccc2[nH]c1=O` at or above 80%?
Marked response: T

The reported numbers originate from PubChem BioAssay (NCI).
